Mark Condition met only for logP values smaller than 3; exact matches and larger values are Condition not met.

compound	qualitative.label
NC(=O)Nc1cccc(O)c1	Condition met
CCCc1nc(NCN2CCCC2=O)nc(N2CCOCC2)n1	Condition met
CC(C)(C)[N+]([O-])=Cc1ccc(Br)cc1	Condition met
OCCCCNc1ncnc2c1ncn2C1OC(CO)C(O)C1O (stereo not drawn)	Condition met
O=C(O)Cc1nn(Cc2nc3cc(C(F)(F)F)ccc3s2)c(=O)c2ccccc12	Condition met
Cc1nc2c3c(c(C(=O)N(C)C)cn2c1C)CCC(c1ccccc1F)O3 (stereo not drawn)	Condition not met
CCCC(=O)NCCCCCN(O)C(=O)CCC(=O)NCCCCCN(O)C(=O)CCC(=O)NCCCCCN(O)C(C)=O	Condition met
CC(=O)NC(CCCNC(=O)N(CCCl)N=O)C(=O)NCc1ccccc1 (stereo not drawn)	Condition met
CC(C)CNC(=O)N1C(=O)N(C)CC1O (stereo not drawn)	Condition met
CCCCCOc1ccc(NC(=O)OCCN2CCCCC2)cc1	Condition not met
Cn1c(=O)[nH]c2ncn(C)c2c1=O	Condition met
COc1ccc(C2Cc3cc(OC(=O)C(C)(C)C)ccc3N(CCN(C)C)C(=O)C2OC(C)=O)cc1 (stereo not drawn)	Condition not met
COc1cc(OC)c(C=[N+]([O-])C(C)(C)C)c(OC)c1	Condition met
CC(=O)N(O)CCCCCNC(=O)CCC(=O)N(O)CCCCCNC(=O)CCC(=O)N(O)CCCCCNS(C)(=O)=O	Condition met
CC1CCC2OC2(C)C12CCC(C(C)(C)O)C2 (stereo not drawn)	Condition met
CCCCCCN=C=S	Condition not met
COc1ccc(C2Cc3c(C)cccc3N(CCN(C)C)C(=O)C2OC(C)=O)cc1 (stereo not drawn)	Condition not met
Cc1cc2c(o1)c(C)cc1c(C)cc(=O)oc12	Condition not met
